Data origin, for the record: patent US20090227607A1

Can you tell me Ki for the items I'm about to list?

"CC(C)CN(C)C(=O)c1cc(-c2ncnc3[nH]ccc23)c[nH]1" on UniProt:O60674 gives Ki = < 100 nM

O=C(c1cc(-c2ncnc3[nH]ccc23)c[nH]1)N1CCCC1CO (stereo not shown) on UniProt:O60674 gives Ki = 100 to 500 nM

"CN(Cc1cccnc1)C(=O)c1cc(-c2ncnc3[nH]ccc23)c[nH]1" on UniProt:O60674 gives Ki = < 100 nM

"N#CCCN(CCC(F)(F)F)C(=O)c1cc(-c2ncnc3[nH]ccc23)co1" on UniProt:O60674 gives Ki = < 100 nM

"CC(C)CNC(=O)c1cc(-c2ncnc3[nH]ccc23)c[nH]1" on UniProt:O60674 gives Ki = < 100 nM

"CCCN(CCC)C(=O)c1cc(-c2ncnc3[nH]ccc23)c[nH]1" on UniProt:O60674 gives Ki = < 100 nM

CC1CC[C@@H](C)N1C(=O)c1coc(-c2ncnc3[nH]ccc23)c1 (stereo partly shown) on UniProt:O60674 gives Ki = < 100 nM

"O=C(c1ccc(-c2ncnc3[nH]ccc23)o1)N(CCC(F)(F)F)CC1CCCC1" on UniProt:O60674 gives Ki = < 100 nM

"O=C(c1cc(-c2ncnc3[nH]ccc23)c[nH]1)N(CCC(F)(F)F)C1CCCC1" on UniProt:O60674 gives Ki = < 100 nM

"CCOC(=O)C1CCN(C(=O)c2cc(-c3ncnc4[nH]ccc34)c[nH]2)CC1" on UniProt:O60674 gives Ki = 500 to 5000 nM

"CCCCN(CCC)C(=O)c1cc(-c2ncnc3[nH]cc(C)c23)c[nH]1" on UniProt:O60674 gives Ki = < 100 nM

"O=C(NC1CCCC1)c1cc(-c2ncnc3[nH]ccc23)c[nH]1" on UniProt:O60674 gives Ki = < 100 nM

"Cn1cc(-c2ncnc3[nH]ccc23)cc1C(=O)NCC(F)(F)F" on UniProt:O60674 gives Ki = < 100 nM

"CC#CCN(C(=O)c1cc(-c2ncnc3[nH]ccc23)c[nH]1)C1CCCCC1" on UniProt:O60674 gives Ki = 100 to 500 nM

"O=C(c1ccc(-c2ncnc3[nH]ccc23)o1)N(CC1CCCC1)CC(F)(F)F" on UniProt:O60674 gives Ki = < 100 nM

CC(C(=O)NCc1cccn1C)n1cc(-c2ncnc3[nH]ccc23)cn1 (stereo not shown) on UniProt:O60674 gives Ki = < 100 nM
